biological target: Dipeptidyl peptidase 1 (Homo sapiens, UniProt P53634); test: Inhibition Assay: The following buffers were used: MES buffer: 25 mM MES, 50 mM NaCl, 5 mM DTT, adjusted to pH 6.0, containing 0.1% BSA; TAGZyme Buffer: 20 mM NaH2PO4, 150 mM NaCl adjusted to pH is 6.0 with HClAssay Conditions:The recombinant human DPPI was diluted in TAGZyme buffer to 1 U/ml (38.1 ug/ml, respectively), and then activated by mixing in a 1:2 ratio with a Cysteamine aqueous solution (2 mM) and incubating for 5 mM at room temperature.Five uL test compound (final concentration 0.1 nM to 100 uM) in aqua bidest (containing 4% DMSO, final DMSO concentration 1%) were mixed with 10 uL of DPPI in MES buffer (final concentration 0.0125 ng/uL) and incubated for 10 min. Then, 5 uL of substrate in MES buffer (final concentration 50 uM) were added. The microtiter plates were then incubated at room temperature for […] Then, the reaction was stopped by adding 10 uL of Gly-Phe-DMK in MES-buffer (final concentration 1 uM).
Sequence (P53634 25-134 limits assumed): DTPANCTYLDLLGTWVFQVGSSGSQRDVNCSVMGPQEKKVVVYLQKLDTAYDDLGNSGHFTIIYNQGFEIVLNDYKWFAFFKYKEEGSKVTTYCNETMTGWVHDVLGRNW
Sequence (P53634 231-394 limits assumed): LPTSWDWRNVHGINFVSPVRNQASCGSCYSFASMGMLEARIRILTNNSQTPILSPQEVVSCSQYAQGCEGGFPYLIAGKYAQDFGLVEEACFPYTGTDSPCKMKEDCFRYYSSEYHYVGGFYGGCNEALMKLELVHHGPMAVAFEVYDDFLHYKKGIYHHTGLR
Sequence (P53634 395-463 limits assumed): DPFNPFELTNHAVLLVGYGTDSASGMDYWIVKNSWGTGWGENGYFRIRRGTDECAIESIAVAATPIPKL

[
  {
    "Molecule": "CN1C(=O)Cc2ccc(-c3sc(CC(C#N)NC(=O)[C@H]4N[C@@H]5CC[C@H]4C5)c(F)c3Br)cc21 (stereo partly specified)",
    "Units text": "nM",
    "Ki": 3.6
  }
]
